# credit: patent US20250101041A1

- Test system: human mAChR M4 (Homo sapiens)
- Assay comment: mAChR M4 cell-based functional assay: calcium mobilization (Fluo-4, FDSS), potentiation of EC20 acetylcholine response in hM4-Gqi5 CHO-K1 cells
- Test conditions: potentiation of EC20 acetylcholine response, calcium mobilization, human M4
Measure: EC50 (nM)

Some entries whose results are on file:
| Molecule | EC50, nM |
| --- | --- |
| COCc1cc(=O)n2nc(N3CCc4ncc(-c5ccnc(C)c5)cc4C3)c(C)cc2n1 | 351 |
| COCc1cc(=O)n2nc(N3Cc4cc(C(F)(F)F)cnc4C(C)C3)c(C)c(C)c2n1 (single isomer, unassigned) [Compound 1-376] | 325 |
| Cc1c(N2CCc3ncc(N4CCCn5nccc54)cc3C2)nn2c(=O)cc(C(F)(F)F)nc2c1C | 20 |
| Cc1cc(=O)n2nc(N3CCc4ncc(-c5cn6ccnc6cc5C)cc4C3)c(C)cc2n1 | 655 |
| COCc1cc(=O)n2nc(N3CCc4ncc(-c5cc(F)c(F)cc5F)cc4C3)c(C)cc2n1 | 576 |

1: Cc1cc(=O)n2nc(N3CCc4ncc(-c5cn6ccnc6cc5C)cc4C3)c(C)c(C)c2n1
2: Cc1cc(=O)n2nc(N3CCc4ncc(-c5cccnc5)cc4C3)c(C)cc2n1
Lookup: Would you let me know which has the greater EC50 value, 1 or 2 ? Reply with the label of the item you choose.
Found: 1
(1: 1760 nM, 2: 375 nM)

a: COCc1cc(=O)n2nc(N3CCc4ncc(-c5cc(F)ncc5F)cc4C3)c(C)cc2n1
b: Cc1c(N2CCc3ncc(-c4cnn(-c5ccccn5)c4)cc3C2)nn2c(=O)ccnc2c1C
c: Cc1cc(=O)n2nc(N3CCc4ncc(-c5cnc(F)cc5C)cc4C3)c(C)c(C)c2n1
d: COCc1cc(=O)n2nc(N3CCc4ncc(-c5cnn6c5COCC6)cc4C3)c(C)c(C)c2n1
Lookup: Reorder: EC50, max to min. In your reply, arrange the labels in the requested order.
Found: a, b, d, c

P: Cc1cc(=O)n2nc(N3CCc4ncc(-c5ccc(F)c(F)c5)cc4C3)c(C)cc2n1
Q: Cc1cc(=O)n2nc(N3CCc4ncc(N5CCOC(c6cccnc6)C5)cc4C3)c(C)c(C)c2n1 (stereo not drawn)
R: Cc1cc(Nc2cnc3c(c2)CN(c2nn4c(=O)ccnc4cc2C)CC3)c(F)cn1
Lookup: Reorder: EC50, max to min. In your reply, arrange the labels in the requested order.
Found: Q, P, R

* * *

- Test system: human mAChR M4 (Homo sapiens, UniProt P08173)
- Construct: expressed in transfected cells; host or cells: CHO-K1 (American Type Culture Collection), stably expressing hM4 and Gqi5
- Sequence (P08173 1-479): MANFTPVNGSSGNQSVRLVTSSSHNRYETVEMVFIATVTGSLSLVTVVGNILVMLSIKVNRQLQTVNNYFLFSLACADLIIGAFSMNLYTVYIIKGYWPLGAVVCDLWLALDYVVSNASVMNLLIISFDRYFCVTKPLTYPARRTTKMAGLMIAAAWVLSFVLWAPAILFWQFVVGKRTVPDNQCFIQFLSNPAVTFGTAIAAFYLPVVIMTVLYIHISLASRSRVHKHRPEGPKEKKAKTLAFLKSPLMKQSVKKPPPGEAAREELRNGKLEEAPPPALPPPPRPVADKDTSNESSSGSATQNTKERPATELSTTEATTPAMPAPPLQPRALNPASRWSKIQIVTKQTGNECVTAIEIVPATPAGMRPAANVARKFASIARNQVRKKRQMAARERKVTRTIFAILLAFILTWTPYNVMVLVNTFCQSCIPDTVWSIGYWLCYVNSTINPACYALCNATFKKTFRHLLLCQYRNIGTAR
- Assay comment: mAChR M4 cell-based functional assay: calcium mobilization (Fluo-4, FDSS), potentiation of EC20 acetylcholine response in hM4-Gqi5 CHO-K1 cells
- Test conditions: CHO-K1, % ACh maximum at 30 μM; human M4
Measure: Emax at 30 µM (%)

| Molecule | Output unit | Measured value |
| --- | --- | --- |
| Cc1cc2nccc(=O)n2nc1N1CCc2ncc(-c3cnn(C)c3C)cc2C1 | % | 90 |
| Cc1cc(=O)n2nc(N3CCc4ncc(-c5cnn(-c6ccccn6)c5)cc4C3)c(C)c(C)c2n1 | % | 61 |
| COc1cc(C)c(-c2cnc3c(c2)CN(c2nn4c(=O)ccnc4cc2C)CC3)cn1 | % | 92 |
| COc1ccc(-c2cnc3c(c2)CN(c2nn4c(=O)cc(C)nc4c(C)c2C)CC3)cc1F | % | 86 |
| Cc1c(N2CCc3ncc(N=S4(=O)CCCC4)cc3C2)nn2c(=O)ccnc2c1C | % | 100 |
| COCc1c(N2CCc3ncc(-c4ccc(C)nc4)cc3C2)nn2c(=O)ccnc2c1C | % | 87 |
| Cc1cc(=O)n2nc(N3CCc4ncc(NCC5CCCOC5)cc4C3)c(C)c(C)c2n1 (centres unmarked) | % | 65 |
| Cc1cc(=O)n2nc(N3CCc4ncc(N5CC6CC5CO6)cc4C3)c(C)cc2n1 (centres unmarked) | % | 77 |

* * *

- Test system: human mAChR M4 (Homo sapiens)
- Assay comment: mAChR M4 cell-based functional assay: calcium mobilization (Fluo-4, FDSS), potentiation of EC20 acetylcholine response in hM4-Gqi5 CHO-K1 cells
- Test conditions: potentiation of EC20 acetylcholine response, calcium mobilization, human M4
Measure: EC50 (nM)

Some entries whose results are on file:
| Molecule | Output unit | Measured value |
| --- | --- | --- |
| Cc1cc2ncc(Cl)c(=O)n2nc1N1CCc2ncc(N3CCCn4nccc43)cc2C1 | nM | 30 |
| Cc1cc(F)ccc1-c1cnc2c(c1)CN(c1nn3c(=O)ccnc3c(C)c1C)CC2 | nM | 222 |

a: COc1cc(F)ccc1Nc1cnc2c(c1)CN(c1nn3c(=O)ccnc3cc1C)CC2
b: Cc1ccncc1-c1cnc2c(c1)CN(c1nn3c(=O)ccnc3c(C)c1C)CC2
Lookup: Input pair: a , b . Output: entry with lower EC50. Reply with the label of the item you choose.
Found: b

* * *

- Test system: human mAChR M4 (Homo sapiens, UniProt P08173)
- Sequence (P08173 1-479): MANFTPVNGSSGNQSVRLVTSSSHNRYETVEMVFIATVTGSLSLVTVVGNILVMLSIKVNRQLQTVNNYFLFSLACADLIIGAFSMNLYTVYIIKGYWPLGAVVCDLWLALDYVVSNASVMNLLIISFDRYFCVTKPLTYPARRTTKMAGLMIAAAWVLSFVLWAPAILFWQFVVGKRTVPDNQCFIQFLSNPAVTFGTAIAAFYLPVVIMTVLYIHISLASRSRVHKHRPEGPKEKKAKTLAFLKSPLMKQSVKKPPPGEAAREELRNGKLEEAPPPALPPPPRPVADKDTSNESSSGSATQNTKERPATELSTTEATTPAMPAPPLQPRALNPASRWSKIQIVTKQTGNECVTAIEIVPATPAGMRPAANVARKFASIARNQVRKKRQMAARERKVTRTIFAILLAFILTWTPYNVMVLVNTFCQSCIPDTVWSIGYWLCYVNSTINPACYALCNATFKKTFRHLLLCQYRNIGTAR
- Assay comment: mAChR M4 cell-based functional assay: calcium mobilization (Fluo-4, FDSS), potentiation of EC20 acetylcholine response in hM4-Gqi5 CHO-K1 cells
- Test conditions: potentiation of EC20 acetylcholine response, calcium mobilization, human M4
- Protocol: […] Calcium flux was measured using the Functional Drug Screening System (FDSS) 6000 or 7000 (Hamamatsu Corporation, Tokyo, Japan) as an increase in the fluorescent static ratio. […] Agonist activity was analyzed as a concentration-dependent increase in calcium mobilization upon compound addition. Positive allosteric modulator activity was analyzed as a concentration-dependent increase in the EC20 acetylcholine response. […]
Measure: EC50 (nM)

Some entries whose results are on file:
| Molecule | Measured value |
| --- | --- |
| Cc1ccc(-c2cnc3c(c2)CN(c2nn4c(=O)cc(C(F)F)nc4c(C)c2C)CC3)cc1 | 883 |
| Cc1cc(=O)n2nc(N3CCc4ncc(-c5cnc(F)cc5C)cc4C3)c(C)cc2n1 | 266 |

P: Cc1cc2nccc(=O)n2nc1N1CCc2ncc(N3CCOC(c4ccccn4)C3)cc2C1 (centres unmarked)
Q: Cc1cc2nccc(=O)n2nc1N1CCc2ncc(Nc3ccnnc3)cc2C1
Lookup: Input pair: P , Q . Output: entry with lower EC50. Reply with the label of the item you choose.
Found: Q
(Q: 308 nM, P: 5340 nM)

I: Cc1cc(=O)n2nc(N3CCc4ncc(-c5cc(F)cc(F)c5F)cc4C3)c(C)cc2n1
II: Cc1cc(=O)n2nc(N3CCc4ncc(-c5ccccc5C)cc4C3)c(C)cc2n1
Lookup: Input pair: I , II . Output: entry with lower EC50. Reply with the label of the item you choose.
Found: II

A: Cc1cc(N(C)C)ncc1-c1cnc2c(c1)CN(c1nn3c(=O)ccnc3cc1C)CC2
B: Cc1cc2nccc(=O)n2nc1N1CCc2ncc(Nc3ccc(F)nc3C)cc2C1
Lookup: Input pair: A , B . Output: entry with lower EC50. Reply with the label of the item you choose.
Found: A
